- protocol.summary: qHTS Assay for Identifying Gametocytocidal Compounds (AID 743244);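 note: % is set by controls: 0 for no effect and ±100 for the full control effect; actives lower the fluorescent signal which means gametocytes are killed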
- condition.notes: P. falciparum 3D7 stage III-V gametocytes, alamarBlue, 72 h; stronger effect = lower value
Inconclusive results are not listed.
observation.type: max response (%)
// note: answer is a bare numeric in %

Below: 5 compounds and their reported max response.
compound: O=C(O)c1cc(=O)[nH]c(=O)[nH]1
observation.type: max response
measure.unit: %
reported.result: -0.993
--
compound: Nc1nc(N)nc(-c2cc(Cl)ccc2Cl)n1
observation.type: max response
measure.unit: %
reported.result: 11.2
--
compound: O=C(O)c1cn(C2CC2)c2cc(N3CCNCC3)c(F)cc2c1=O
observation.type: max response
measure.unit: %
reported.result: 4.49
--
compound: O=c1oc2c(O)c(O)cc3c(=O)oc4c(O)c(O)cc1c4c23
observation.type: max response
measure.unit: %
reported.result: 10.2
--
compound: CN(C)CCc1c[nH]c2ccc(C[C@H]3COC(=O)N3)cc12
observation.type: max response
measure.unit: %
reported.result: -7.68

Record CN1CCCC(n2nc(Cc3ccc(Cl)cc3)c3ccccc3c2=O)CC1 (centres undefined) . Reported max response: 32.9

Record CCCN[C@H]1CCc2nc(N)sc2C1 . Reported max response: -5.22

Record Cc1ccnc2c1NC(=O)c1cccnc1N2C1CC1 . Reported max response: 21.9

Record Cc1ccc(S(=O)(=O)N[C@@H](Cc2ccccc2)C(=O)CCl)cc1 . Reported max response: 11.5

Record CCCc1cc(C(N)=S)ccn1 . Reported max response: 4.17

Record CNS(=O)(=O)CCc1ccc2[nH]cc(C3CCN(C)CC3)c2c1 . Reported max response: 4.41

---

- protocol.summary: High-throughput drug toxicity screening in the BPDCN cell line Gen2.2 (AID 1224824);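 note: cells exposed to compounds for 48 h before reading; 100% = DMSO and 0% = bortezomib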
- condition.notes: Gen2.2 BPDCN cells; at 45.8 µM (top of the series) unless noted
Quick reference for cell viability, % of control (lower = more cytotoxic) among some compounds
// note: answer is a bare numeric in %

Below: 3 compounds and their reported cell viability, % of control (lower = more cytotoxic).
compound: C[C@@H]1C[C@H]2[C@@H]3CCC4=CC(=O)C=C[C@]4(C)[C@@]3(Cl)[C@@H](O)C[C@]2(C)[C@@]1(OC(=O)c1ccco1)C(=O)CCl
reported.result: 4.47

compound: CO[C@@H]1[C@@H](OC(N)=O)[C@@H](O)[C@H](Oc2ccc3c(O)c(NC(=O)c4ccc(O)c(CC=C(C)C)c4)c(=O)oc3c2C)OC1(C)C
reported.result: 13.9

compound: COc1cc2ncnc(Nc3cccc(Cl)c3)c2cc1OC
reported.result: 115

Proceed to the following item.
Record O=C(O)CSCC(=O)NC1CCSC1=O (centres undefined) . Reported cell viability, % of control (lower = more cytotoxic): 118

---

- protocol.summary: qHTS of pediatric cancer cell lines to identify multiple opportunities for drug repurposing: Confirmatory screen for SJ-GBM2 cells (AID 1347116);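 note: 48 hour compound exposure; nearly all actives have a fitted effect of over 60% in size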
- condition.notes: SJ-GBM2 glioblastoma cells, viability; series mostly up to 45.9 µM
Records with an inconclusive call do not appear. Active and inactive are the calls of the source. Calls come from the whole dose curve; as a rule, active = well fitted cell-killing curve with a large enough effect; inconclusive = small, poorly fitted or top-dose-only effect, or effect the other way; inactive = no such curve, though single readings can be large or run the other way.
observation.type: outcome

smiles: CC(C)(C)C(=O)OCOP(=O)(COCCn1cnc2c(N)ncnc21)OCOC(=O)C(C)(C)C
observation.type: outcome
reported.result: inactive
//
smiles: C[C@@H](CN1CC(=O)NC(=O)C1)N1CC(=O)NC(=O)C1
observation.type: outcome
reported.result: inactive
//
smiles: CCC(=O)O[C@]1(C(=O)CCl)[C@@H](C)C[C@H]2[C@@H]3CCC4=CC(=O)C=C[C@]4(C)[C@@]3(F)[C@@H](O)C[C@@]21C
observation.type: outcome
reported.result: inactive
